Target: T1, human PCSK9 (human, UniProt Q8NBP7 31-692)
T1 construct: also called hPCSK9; huPCSK9
Assay: PCSK9:EGFA FRET 2, competition
Reported metric: pIC50
In simple prose, pIC50 is minus the logarithm base ten of a concentration in moles per litre.

A selection of reference data follows.
- PCSK9-PKE2 tandem 4472_B03 (designed binder, not shown: The inter-domain linker; In the real molecule the two parts below are one polypeptide joined by this linker) PCSK9 domain: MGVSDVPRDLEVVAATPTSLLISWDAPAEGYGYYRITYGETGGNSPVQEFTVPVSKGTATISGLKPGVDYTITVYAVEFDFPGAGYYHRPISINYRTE PKE2 domain: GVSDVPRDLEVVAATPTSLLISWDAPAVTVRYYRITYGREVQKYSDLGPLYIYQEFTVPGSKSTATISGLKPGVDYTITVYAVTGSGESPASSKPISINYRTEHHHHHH: 8.32
- PCSK9-PKE2 tandem 4472_B05 (designed binder, not shown: small tags and cut ends, The two parts are one polypeptide in the real molecule, joined by the undisclosed linker O; they are given here as separate chains.) PCSK9 10Fn3: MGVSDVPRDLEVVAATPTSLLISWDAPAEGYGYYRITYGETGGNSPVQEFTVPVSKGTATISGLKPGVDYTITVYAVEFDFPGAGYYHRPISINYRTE PKE2 10Fn3: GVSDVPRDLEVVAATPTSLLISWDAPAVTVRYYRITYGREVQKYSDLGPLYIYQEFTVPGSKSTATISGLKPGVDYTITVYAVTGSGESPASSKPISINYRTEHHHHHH: 8.26
- PCSK9-PKE2 tandem 4472_A06 (designed binder, not shown: small tags and cut ends, The two parts are one polypeptide in the real molecule, joined by the undisclosed linker M; they are given here as separate chains.) PCSK9 10Fn3: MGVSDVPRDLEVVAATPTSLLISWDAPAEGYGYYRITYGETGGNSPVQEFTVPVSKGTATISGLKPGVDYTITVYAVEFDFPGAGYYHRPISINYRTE PKE2 10Fn3: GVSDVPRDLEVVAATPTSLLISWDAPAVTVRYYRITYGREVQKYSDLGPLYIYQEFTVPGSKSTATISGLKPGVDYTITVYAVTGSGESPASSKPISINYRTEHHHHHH: 8.57

Query: Recorded pIC50 of PCSK9-PKE2 tandem 4472_E04 (designed binder, not shown: small tags and cut ends, The two parts are one polypeptide in the real molecule, joined by the undisclosed linker Q; they are given here as separate chains.) PCSK9 10Fn3: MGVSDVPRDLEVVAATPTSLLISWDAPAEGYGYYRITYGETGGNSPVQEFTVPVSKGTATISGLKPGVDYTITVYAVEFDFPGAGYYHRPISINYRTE PKE2 10Fn3: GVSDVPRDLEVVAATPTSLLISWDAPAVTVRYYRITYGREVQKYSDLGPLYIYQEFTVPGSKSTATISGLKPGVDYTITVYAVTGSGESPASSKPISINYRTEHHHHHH , please.
Result: 8.12

Query: Recorded pIC50 of PCSK9-PKE2 tandem 4472_A04 (designed binder, not shown: The inter-domain linker; In the real molecule the two parts below are one polypeptide joined by this linker) PCSK9 domain: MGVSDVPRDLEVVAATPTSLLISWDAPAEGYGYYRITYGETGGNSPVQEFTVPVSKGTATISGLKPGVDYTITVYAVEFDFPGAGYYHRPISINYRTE PKE2 domain: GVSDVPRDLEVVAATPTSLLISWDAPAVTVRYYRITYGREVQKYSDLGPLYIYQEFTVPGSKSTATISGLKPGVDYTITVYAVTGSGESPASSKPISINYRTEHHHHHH , please.
Result: 8.35
